FYI, the data here is from patent US10251395B2.

Recorded SETVI pre-emergence efficacy (herbicidal activity) values for a group of compounds are listed next.
- Test system: Setaria viridis
- Experiment summary: Pre-emergence herbicidal effect
- Type: in vivo
- Test conditions: Dosage 320 g/ha, scored visually after 3 weeks
Metric name: SETVI pre-emergence efficacy (herbicidal activity) (%)

[[record]]
compound = "Cc1cc2c(s1)CCCC2Nc1ncc(C(N)=O)c(N)n1 (racemic) [compound 267]"
reported = 80

[[record]]
compound = "Cc1cc2c(s1)CCCC2Nc1ncc2c(n1)CCCC2=O (racemic) [compound 9]"
reported = 100

[[record]]
compound = "C=C(c1cnc(NC2CCCc3sc(C)cc32)nc1N)C(F)(F)F (racemic) [compound 275]"
reported = 100

[[record]]
compound = "CCOC(=O)c1cnc(NC2CCCc3sc(C)cc32)nc1C (racemic) [compound 240]"
reported = 100

[[record]]
compound = "Nc1nc(NC2CCc3cc(Cl)sc32)ncc1C(F)(F)F (racemic) [compound 48]"
reported = 80


----------
- Test system: Viola tricolor
- Experiment summary: Post-emergence herbicidal effect
- Assay type: in vivo
- Test conditions: 80 g/ha, assessed visually after about 3 weeks vs untreated controls
Metric name: post-emergence efficacy VIOTR (%)

[[record]]
compound = "CS(=O)(=O)c1cnc(NC2CCCc3cc(Cl)sc32)nc1N (racemic) [compound 53]"
reported = 90

[[record]]
compound = "CCOC(=O)c1cnc(NC2CCCc3sc(C)cc32)nc1N (racemic) [compound 293]"
reported = 70

[[record]]
compound = "Nc1nc(NC2CCc3sc(Cl)cc32)ncc1C(F)(F)F (racemic) [compound 256]"
reported = 90

[[record]]
compound = "Cc1cc2c(s1)CCCC2Nc1nc(N)c(S(C)(=O)=O)c(C(F)F)n1 (racemic) [compound 287]"
reported = 100

[[record]]
compound = "Nc1nc(NC2CCCc3sccc32)ncc1S(=O)(=O)C1CC1 (racemic) [compound 36]"
reported = 100

[[record]]
compound = "Cc1cc2c(s1)CCCC2Nc1ncc(C(=O)C(F)(F)F)c(N)n1 (racemic) [compound 72]"
reported = 80

[[record]]
compound = "N#Cc1cnc(NC2CCc3cc(Cl)sc32)nc1N (racemic) [compound 49]"
reported = 80

[[record]]
compound = "Cc1cc2c(s1)CCCC2Nc1ncc(C(N)=O)c(N)n1 (racemic) [compound 267]"
reported = 80


----------
Recorded post-emergence efficacy PHBPU values for a group of compounds are listed next.
- Test system: Ipomoea purpurea
- Experiment summary: Post-emergence herbicidal effect
- Format: in vivo
- Test conditions: 80 g/ha, assessed visually after about 3 weeks vs untreated controls
Metric name: post-emergence efficacy PHBPU (%)

[[record]]
compound = "CC(=NO)c1cnc(NC2CCCc3sc(C)cc32)nc1N (centres unmarked) [compound 286]"
display_unit = "%"
reported = 70

[[record]]
compound = "CC(=O)c1cnc(NC2CCCc3sc(C)cc32)nc1N (centres unmarked) [compound 283]"
display_unit = "%"
reported = 80

[[record]]
compound = "CCOC(=O)c1cnc(NC2CCCc3sc(C)cc32)nc1N (racemic) [compound 293]"
display_unit = "%"
reported = 80

[[record]]
compound = "CS(=O)(=O)c1cnc(N[C@@H]2CCCc3sccc32)nc1N [compound 24]"
display_unit = "%"
reported = 80

[[record]]
compound = "Cc1cc2c(s1)CCC[C@H]2Nc1ncc(C(F)(F)F)c(N)n1 [compound 47]"
display_unit = "%"
reported = 100

[[record]]
compound = "Cc1cc2c(s1)CCCC2Nc1ncc(C#N)c(N)n1 (centres unmarked) [compound 282]"
display_unit = "%"
reported = 80

[[record]]
compound = "C/C(=N\\O)c1cnc(NC2CCCc3sc(Cl)cc32)nc1C (racemic) [compound 260]"
display_unit = "%"
reported = 70

[[record]]
compound = "Cc1cc2c(s1)CCCC2Nc1ncc(C(F)(F)F)c(N)n1 (racemic) [compound 257]"
display_unit = "%"
reported = 80

[[record]]
compound = "CC(=NO)c1cnc(NC2CCCc3sc(C)cc32)nc1N (racemic) [compound 341]"
display_unit = "%"
reported = 80

[[record]]
compound = "Cc1cc2c(s1)C(Nc1ncc(C(F)(F)F)c(N)n1)CCC2 (racemic) [compound 55]"
display_unit = "%"
reported = 100

[[record]]
compound = "Cc1cc2c(s1)CCCC2Nc1nc(N)c(Br)c(C(F)F)n1 (racemic) [compound 284]"
display_unit = "%"
reported = 90

[[record]]
compound = "Cc1cc2c(s1)CCCC2Nc1ncc(C(F)(F)F)c(N)n1 (racemic) [compound 11]"
display_unit = "%"
reported = 90

[[record]]
compound = "Cc1cc2c(s1)CCC[C@H]2Nc1ncc(I)c(N)n1 [compound 173]"
display_unit = "%"
reported = 90

[[record]]
compound = "Cc1cc2c(s1)CCCC2Nc1ncc(C(F)(F)F)c(N)n1 (racemic) [compound 61]"
display_unit = "%"
reported = 90

[[record]]
compound = "Cc1cc2c(s1)CCCC2Nc1ncc(S(C)(=O)=O)c(N)n1 (racemic) [compound 59]"
display_unit = "%"
reported = 80

[[record]]
compound = "CS(=O)(=O)c1cnc(NC2CCCc3sccc32)nc1N (racemic) [compound 23]"
display_unit = "%"
reported = 80

[[record]]
compound = "Cc1cc2c(s1)CCCC2Nc1ncc(SC(F)(F)F)c(C)n1 (racemic) [compound 80]"
display_unit = "%"
reported = 90

